# Test system: Lefty1
# runDescription: Lefty1 binders on small-molecule microarrays, primary screen, biochemical, small-molecule microarray, 635/667 nm fluorescence (AID 1139)
# cond: small-molecule microarray binding, fluorescence 635/667; higher = more signal
quantity: composite z-score
Please give the numeric answer without any surrounding text.

For record `C=C[C@H](C)[C@@H](O)c1ccc(O)c2ccccc12` the listed composite z-score is 0.246

The molecule identified as `O=C1C=CC(=O)[C@@H]2CC(COc3ccccc3)=C3[C@@H](CCc4ccccc4)OB(O)C[C@@H]3[C@H]12` registered its composite z-score at 0.411

Field composite z-score (entry `CC(C)CNC(=O)[C@@]1(c2ccc([N+](=O)[O-])cc2)CC(=O)N(CC23CC4CC(CC(C4)C2)C3)[C@@H]1c1ccc(CO)cc1` ) reads 0.0651

Entry `COCCOC(=O)N1C(=O)[C@@]2(c3cc(C#CC4(O)CCCCCC4)ccc31)[C@H](C(=O)N1CCCCCCC1)[C@H]1C(=O)O[C@H](c3ccccc3)[C@H](c3ccccc3)N1[C@@H]2c1ccccc1OCCO` — recorded composite z-score = 0.955

According to the records, this molecule `[N-]=[N+]=Nc1ccccc1[C@@H]1OC(c2ccc(OCCCO)cc2)=N[C@]1(CCS(=O)(=O)c1ccccc1)C(=O)N1CCOCC1` displays composite z-score of 0.541

Lab book: composite z-score of `COCCOC(=O)N1C(=O)[C@@]2(c3cc(C#CC4=CCCCC4)ccc31)[C@H](C(=O)NC[C@H](O)c1ccccc1)[C@H]1C(=O)O[C@H](c3ccccc3)[C@H](c3ccccc3)N1[C@@H]2c1ccc(O)cc1` noted as 0.861

The molecule identified as `COC(=O)[C@@]1(Cc2ccc(OC)cc2)[C@H]2c3cc(C(=O)N4CCCC4)n(CCc4c[nH]c5cc(F)ccc45)c3C[C@H]2CN1C(=O)c1ccccc1` registered its composite z-score at 0.0312

COC(=O)C1=CC(CCCO)=CC(C2CC2)N(Cc2sc3ccccc3c2Cl)C=C1C(=O)OC (stereo not given) has a reported composite z-score of 0.222

Lab book: composite z-score of `CCC[C@@H]1C=C(C(=O)O)[C@H](c2ccc(C)cc2)N1S(=O)(=O)c1ccc(C)cc1` noted as -0.234

composite z-score measured on `CN(C)CCCCCCNC(=O)[C@H]1C[C@H]2C(=O)N[C@@H](CCCCN)C(=O)N2[C@H]1c1ccc(O)cc1` = 1.75

The recorded composite z-score for `CC(C)C[C@@H]1NC(=O)[C@H]2C[C@@H](C(=O)NCCCCCNC(=O)CS)[C@@H](c3cccc(OCCO)c3)N2C1=O` is 1.35

Record summary for CCCCCN1CC=CC23O[C@@H]4/C=C\CCCOC(=O)C4[C@H]2C(=O)N(CCCCCCO)[C@@H]3C1=O (stereo not given in full) : reported composite z-score = 0.0393

Lab note: CC(C)c1ccc(NN2C(C(O)c3ccc(N(C)C)cc3)C=CC3C(=O)N(c4ccccc4)C(=O)C32)cc1 (stereo not given) gave composite z-score of 0.273

Lab book: composite z-score of CN1C=C(C(=O)OCCS(C)(=O)=O)C(C(=O)OCCS(C)(=O)=O)=CC(CCCO)=CC1C1CC1 (stereo not given) noted as 0.889

composite z-score for `CC(C)C(=C=CC[C@@H](O)c1ccccc1OCCO)C[C@@H](O)c1ccccn1` is 0.811
